test system: Nitric Oxide Synthase (NOS); assay: Inhibition of nitric oxide synthase (nitrite fluorimetric assay, LPS-stimulated macrophage cultures); format: cell-based; conditions: LPS-stimulated macrophages
readout-type: inhibition at 10 µM (%)
Respond with the bare value in %.

Prompt: Identify inhibition at 10 µM associated with the molecule CCCCCCC(C)(C)c1cc(O)c2c(c1)OC(C)(C)[C@H]1CC=C(Cn3cccn3)C[C@H]21
Completion: 11

Prompt: Identify inhibition at 10 µM associated with the molecule CCCCCCC(C)(C)c1cc(O)c2c(c1)OC(C)(C)[C@H]1CC=C(CN(Cc3ccccc3)c3ccccc3)C[C@H]21
Completion: 7

Prompt: Identify inhibition at 10 µM associated with the molecule CCCCCCC(C)(C)c1cc(O)c2c(c1)OC(C)(C)[C@H]1CC=C(CO)C[C@H]21 [211,007-000 HU-211, reference compound]
Completion: 20

Prompt: Identify inhibition at 10 µM associated with the molecule CCCCCCC(C)(C)c1cc(O)c2c(c1)OC(C)(C)[C@H]1CC=C(C[S+](C)[O-])C[C@H]21 (stereo partly shown)
Completion: 72
